Where do these numbers come from? They come from ChEMBL document CHEMBL4513216.

Tested on: Plasmodium berghei
Assay: Screen against P. berghei liver stage (PbLuc), transformed with Luciferase, at 2uM
Type: functional, HepG2
Conditions: tested at 2 uM
In all, about 68,000 compounds went through this assay and about 2,700 (4%) showed an effect of 50% or more. This is one part of a sample in which strong results are shown more often than they occur.
reported property: INHIBITION (%)
Your answer should be a plain number; it is taken to be in %.

CC(C)c1cc(C(=O)NCC2CCCN(C(C)C)C2)n(C)n1 (centres undefined); 48.04

Lookup: // Input: O=C(c1ccc2c(c1)OCCO2)N1CCCC(n2ccnc2)C1 (centres undefined) . Output its INHIBITION only.
Found: 78.98

Lookup: // Input: CCCc1nnc(N2CCN(c3ccccc3OCC)CC2)o1 . Output its INHIBITION only.
Found: -11.34
